- TARGET_UNDER_TEST: UniProtKB P35372
- Sequence (P35372 whole entry): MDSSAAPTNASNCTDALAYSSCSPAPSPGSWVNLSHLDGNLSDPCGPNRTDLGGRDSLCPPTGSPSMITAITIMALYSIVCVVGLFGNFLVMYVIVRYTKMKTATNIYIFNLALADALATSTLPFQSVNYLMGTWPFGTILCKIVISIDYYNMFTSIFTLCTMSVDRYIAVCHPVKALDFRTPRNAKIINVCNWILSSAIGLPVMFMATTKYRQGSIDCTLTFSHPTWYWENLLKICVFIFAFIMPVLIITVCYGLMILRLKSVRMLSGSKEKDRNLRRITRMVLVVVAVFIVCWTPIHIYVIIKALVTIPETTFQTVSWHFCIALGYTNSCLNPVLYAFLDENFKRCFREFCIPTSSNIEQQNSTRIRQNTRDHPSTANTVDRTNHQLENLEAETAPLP
Quick reference for AC50 among some compounds
MEASUREMENT_KIND: AC50

- N#C[C@@H]1CCCN1C(=O)CNC12CC3CC(CC(O)(C3)C1)C2: > 10 µM
- CNC[C@H](O)c1cccc(O)c1: > 10 µM
- NC(=O)c1ncn([C@@H]2O[C@H](CO)[C@@H](O)[C@H]2O)n1: > 30 µM
- O=C1CN2Cc3c(ccc(Cl)c3Cl)N=C2N1 [ANAGRELIDE]: > 30 µM
- O=C1Nc2ccc(Cl)cc2C(c2ccccc2)=NC1O (configuration not stated): > 10 µM
- Nc1ccn([C@@H]2O[C@H](CO)[C@@H](O)C2(F)F)c(=O)n1: > 30 µM
- CC(=O)OCC(CCn1cnc2cnc(N)nc21)COC(C)=O: > 30 µM
